# system: PDK1 enzyme (Homo sapiens, UniProt O15530)
# Sequence (O15530 1-556): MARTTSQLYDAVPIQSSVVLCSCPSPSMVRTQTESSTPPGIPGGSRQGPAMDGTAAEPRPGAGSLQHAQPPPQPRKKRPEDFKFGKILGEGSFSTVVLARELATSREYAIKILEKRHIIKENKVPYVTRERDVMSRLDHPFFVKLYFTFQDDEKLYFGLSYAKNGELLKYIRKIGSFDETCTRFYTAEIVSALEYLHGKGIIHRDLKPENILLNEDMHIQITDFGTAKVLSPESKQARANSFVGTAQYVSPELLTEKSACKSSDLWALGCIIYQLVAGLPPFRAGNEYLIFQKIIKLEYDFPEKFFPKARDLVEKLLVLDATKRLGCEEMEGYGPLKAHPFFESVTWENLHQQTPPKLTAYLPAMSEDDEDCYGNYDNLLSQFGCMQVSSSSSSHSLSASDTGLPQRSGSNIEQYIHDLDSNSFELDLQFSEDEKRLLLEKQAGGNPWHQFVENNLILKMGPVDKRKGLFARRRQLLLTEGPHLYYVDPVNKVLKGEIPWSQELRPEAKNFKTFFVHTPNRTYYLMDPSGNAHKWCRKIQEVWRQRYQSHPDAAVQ
# run_description: PDK1 kinase inhibition assay (33P phosphorylation of synthetic peptide, filter plate)
# Assay type: biochemical
# condition_details: 0.01 mM ATP, 60 min at 30° C.; read-out: PDK1 IC50
We begin with a simple list: items and their reported IC50.
Return type: number; implicit unit µM.

structure_as_smiles	IC50 [µM]
CC1(C)CC(Nc2cc(Nc3ccc(S(=O)(=O)N4CCCC4)cc3)n3ncc(Br)c3n2)CC(C)(C)N1	4.54

Shift focus to the following entry.
Give the reported IC50 for `CN(C)S(=O)(=O)c1ccc(Nc2cc(N[C@H]3CC[C@H](N)CC3)nc3ccnn23)cc1` (system: PDK1 enzyme (Homo sapiens, UniProt O15530)).
3.36

Each recorded value in this set is attributed to patent US20070179161A1.
